Where these numbers come from: paper doi:10.1101/2025.01.23.634542

- measuredTarget: UniProtKB G1T6W8
- Sequence (G1T6W8 entry or part of it): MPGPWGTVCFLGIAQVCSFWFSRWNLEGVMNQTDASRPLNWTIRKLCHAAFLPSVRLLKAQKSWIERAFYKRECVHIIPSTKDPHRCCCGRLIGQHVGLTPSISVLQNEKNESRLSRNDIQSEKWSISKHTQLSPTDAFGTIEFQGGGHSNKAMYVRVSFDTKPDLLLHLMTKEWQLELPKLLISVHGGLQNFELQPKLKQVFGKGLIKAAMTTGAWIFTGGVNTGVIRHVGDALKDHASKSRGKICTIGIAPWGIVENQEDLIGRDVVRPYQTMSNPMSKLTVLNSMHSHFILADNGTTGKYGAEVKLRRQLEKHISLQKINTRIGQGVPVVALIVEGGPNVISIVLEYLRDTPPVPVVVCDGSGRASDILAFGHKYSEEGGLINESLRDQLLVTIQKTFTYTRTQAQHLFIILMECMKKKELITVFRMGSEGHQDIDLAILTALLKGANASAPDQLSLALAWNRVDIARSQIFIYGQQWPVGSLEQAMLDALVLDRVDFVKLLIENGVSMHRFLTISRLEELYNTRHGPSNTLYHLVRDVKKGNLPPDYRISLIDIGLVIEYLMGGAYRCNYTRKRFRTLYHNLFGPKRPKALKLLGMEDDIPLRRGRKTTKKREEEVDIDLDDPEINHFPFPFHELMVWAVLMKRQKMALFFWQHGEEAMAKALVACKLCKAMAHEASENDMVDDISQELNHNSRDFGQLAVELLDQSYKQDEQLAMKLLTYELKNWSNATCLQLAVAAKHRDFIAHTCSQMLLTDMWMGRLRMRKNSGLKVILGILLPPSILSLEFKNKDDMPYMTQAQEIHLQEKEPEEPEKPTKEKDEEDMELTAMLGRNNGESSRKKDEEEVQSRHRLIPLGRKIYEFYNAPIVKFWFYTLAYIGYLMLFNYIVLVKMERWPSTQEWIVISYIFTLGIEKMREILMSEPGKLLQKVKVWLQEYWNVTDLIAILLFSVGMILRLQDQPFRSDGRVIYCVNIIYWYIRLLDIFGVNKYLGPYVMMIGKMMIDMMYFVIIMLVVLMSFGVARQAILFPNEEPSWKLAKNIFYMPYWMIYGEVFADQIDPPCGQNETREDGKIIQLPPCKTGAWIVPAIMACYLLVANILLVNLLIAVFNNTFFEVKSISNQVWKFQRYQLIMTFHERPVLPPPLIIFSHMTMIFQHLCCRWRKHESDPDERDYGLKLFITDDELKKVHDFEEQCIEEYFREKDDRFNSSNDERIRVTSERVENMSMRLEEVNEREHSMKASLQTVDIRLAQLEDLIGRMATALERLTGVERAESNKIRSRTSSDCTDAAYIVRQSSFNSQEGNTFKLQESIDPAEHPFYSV
- runDescription: Whole-cell patch-clamp agonist dose-response, wild-type TRPM3 in tsA cells
- conditionSet: WT TRPM3, whole-cell current at +80 mV
endpoint: pEC50
Please keep in mind that pEC50 is minus log10 of the molar concentration; only the number is needed.

-- ask Look at this molecule and give its reported pEC50. Cc1cc(NC(=O)C(c2ccccc2)N2CCCc3ccccc32)no1 (stereo not shown)
-- reply 6.15
